# study system: UniProt:A0A024AXB9
# Sequence (A0A024AXB9 whole entry): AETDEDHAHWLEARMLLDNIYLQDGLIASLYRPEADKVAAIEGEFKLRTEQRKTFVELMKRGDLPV
# procedure text: Functional biochemical assay to identify treatments for viral infectious disease that targets Zika NS2B-NS3 protease. Utilizing a direct enzyme activity measurement method, reading the fluorescence intensity is used to characterize the relative potency of inhibitors as IC50.
# Set-up: species or system PRVABC59
observation type: IC50 (µM)

[[record]]
cpd_smiles = "c1cncc([C@@H]2CN(Cc3c[nH]c4ccccc34)CCO2)c1"
study_system = "UniProt:A0A024AXB9"
observation_type = "IC50"
units = "µM"
value_comparator = ">"
test_result = 99.5

[[record]]
cpd_smiles = "CC(C)(C)NC(=O)[C@H](Nc1ccc2c(c1)CNC2)c1cc(Cl)cc(C2CC2)c1"
study_system = "UniProt:A0A024AXB9"
observation_type = "IC50"
units = "µM"
value_comparator = "="
test_result = 4.69

[[record]]
cpd_smiles = "Cc1c(C(=O)Nc2cc(CCCN)ccn2)cc(C#N)n1C"
study_system = "UniProt:A0A024AXB9"
observation_type = "IC50"
units = "µM"
value_comparator = ">"
test_result = 25

[[record]]
cpd_smiles = "CC(C)(C)c1ncc(-c2ccc([C@@H](NC(=O)OCc3ccccc3)C(=O)Nc3cccc(CN)c3)cc2)o1"
study_system = "UniProt:A0A024AXB9"
observation_type = "IC50"
units = "µM"
value_comparator = "="
test_result = 36.3

[[record]]
cpd_smiles = "O=C(Nc1ccc2c(c1)CNC2)c1cc(Cl)ccc1OCC(F)(F)F"
study_system = "UniProt:A0A024AXB9"
observation_type = "IC50"
units = "µM"
value_comparator = "="
test_result = 2.77


Reference source for all entries: ChEMBL document CHEMBL5604062
